Listing: thermal stability score of selected substances
- System: HeLa Kyoto;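 further: synchronized HeLa Kyoto cells, proteins quantified by TMT10plex mass spectrometry, three biological replicates, mitosis taken 0.5 h after nocodazole release, G1/S directly after double thymidine block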
- Assay details: thermal stability score vs G1/S (z-score of summed log2 fold changes over temperatures); higher = more thermally stable than in G1/S
- Run parameters: cell cycle stage: early G1 (4.5 h after nocodazole release)
Could you respond with only the numeric value?

{"Substance": "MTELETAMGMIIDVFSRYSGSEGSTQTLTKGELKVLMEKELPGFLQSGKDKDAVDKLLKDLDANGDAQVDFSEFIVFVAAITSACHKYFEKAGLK [S100P]", "thermal stability score": -0.94}
{"Substance": "MPEAPPLLLAAVLLGLVLLVVLLLLLRHWGWGLCLIGWNEFILQPIHNLLMGDTKEQRILNHVLQHAEPGNAQSVLEAIDTYCEQKEWAMNVGDKKGKIVDAVIQEHQPSVLLELGAYCGYSAVRMARLLSPGARLITIEINPDCAAITQRMVDFAGVKDKVTLVVGASQDIIPQLKKKYDVDTLDMVFLDHWKDRYLPDTLLLEECGLLRKGTVLLADNVICPGAPDFLAHVRGSSCFECTHYQSFLEYREVVDGLEKAIYKGPGSEAGP [COMT]", "thermal stability score": 3.01}
{"Substance": "ZWILCH", "thermal stability score": 0.346}
{"Substance": "MEGLVVAAGGDVSLHNFSARLWEQLVHFHVMRLTDSLFLWVGATPHLRNLAVAMCSRYDSIPVSTSLLGDTSDTTSTGLAQRLARKTNKQVFVSYNLQNTDSNFALLVENRIKEEMEAFPEKF [PSMG4]", "thermal stability score": -0.165}
{"Substance": "MAKTYDYLFKLLLIGDSGVGKTCVLFRFSEDAFNSTFISTIGIDFKIRTIELDGKRIKLQIWDTAGQERFRTITTAYYRGAMGIMLVYDITNEKSFDNIRNWIRNIEEHASADVEKMILGNKCDVNDKRQVSKERGEKLALDYGIKFMETSAKANINVENAFFTLARDIKAKMDKKLEGNSPQGSNQGVKITPDQQKRSSFFRCVLL [RAB8A]", "thermal stability score": 2.59}

Ask: Fill in the blank: the reported thermal stability score of MADKQISLPAKLINGGIAGLIGVTCVFPIDLAKTRLQNQQNGQRVYTSMSDCLIKTVRSEGYFGMYRGAAVNLTLVTPEKAIKLAANDFFRHQLSKDGQKLTLLKEMLAGCGAGTCQVIVTTPMEMLKIQLQDAGRIAAQRKILAAQGQLSAQGGAQPSVEAPAAPRPTATQLTRDLLRSRGIAGLYKGLGATLLRDVPFSVVYFPLFANLNQLGRPASEEKSPFYVSFLAGCVAGSAAAVAVNPCDVVKTRLQSLQRGVNEDTYSGILDCARKILRHEGPSAFLKGAYCRALVIAPLFGIAQVVYFLGIAESLLGLLQDPQA [SLC25A22] is ____.
Result: 0.207

Ask: Fill in the blank: the reported thermal stability score of MENHKSNNKENITIVDISRKINQLPEAERNLLENGSVYVGLNAALCGLIANSLFRRILNVTKARIAAGLPMAGIPFLTTDLTYRCFVSFPLNTGDLDCETCTITRSGLTGLVIGGLYPVFLAIPVNGGLAARYQSALLPHKGNILSYWIRTSKPVFRKMLFPILLQTMFSAYLGSEQYKLLIKALQLSEPGKEIH [TMEM126A] is ____.
Result: -0.173

Ask: Fill in the blank: the reported thermal stability score of MKMKLFQTICRQLRSSKFSVESAALVAFSTSSYSCGRKKKVNPYEEVDQEKYSNLVQSVLSSRGVAQTPGSVEEDALLCGPVSKHKLPNQGEDRRVPQNWFPIFNPERSDKPNASDPSVPLKIPLQRNVIPSVTRVLQQTMTKQQVFLLERWKQRMILELGEDGFKEYTSNVFLQGKRFHEALESILSPQETLKERDENLLKSGYIESVQHILKDVSGVRALESAVQHETLNYIGLLDCVAEYQGKLCVIDWKTSEKPKPFIQSTFDNPLQVVAYMGAMNHDTNYSFQVQCGLIVVAYKDGSPAHPHFMDAELCSQYWTKWLLRLEEYTEKKKNQNIQKPEYSE [MGME1] is ____.
Result: -0.736
